Target: DNA polymerase beta (Rattus norvegicus)
Assay: Inhibition constant at a concentration of 5 uM on rat DNA polymerase beta as a function of template primer dose
Assay Endpoint: pKi
Conceptually, pKi converts a concentration in mol/L into minus its log10.

Problem: Give pKi only, for C[C@H](CCC(=O)O)[C@H]1CC[C@H]2[C@@H]3CCC4C[C@@H](O)CC[C@]4(C)[C@H]3CC[C@]12C (stereo partly specified) , using DNA polymerase beta (Rattus norvegicus) data.
Solution: 5.33
